# systemTested: Tubulin (Homo sapiens) (UniProt P68371+Q9H4B7+P0DPH7+P68366+Q13509+Q71U36+P04350+Q3ZCM7+P07437+P68363+Q9BQE3+Q6PEY2+Q13885+Q9BVA1+Q9BUF5)
# testDetails: Inhibition of tubulin polymerization (unknown origin) at 10 uM relative to control
# Format: protein-complex assay

{"columns": ["smilesRepresentation", "inhibition"],
 "data": [
  ["COc1cc(F)ccc1-c1nn(-c2cc(OC)c(OC)c(OC)c2)c2ncccc12", "20%"],
  ["COc1ccc(-c2nn(-c3cc(OC)c(OC)c(OC)c3)c3ncccc23)cc1O", "31%"],
  ["COc1cc(-n2nc(-c3ccc(F)cc3)c3cccnc32)cc(OC)c1OC", "18%"],
  ["COc1ccc(-c2nn(-c3cc(OC)c(OC)c(OC)c3)c3ncccc23)cc1[N+](=O)[O-]", "16%"],
  ["COc1ccc(-c2nn(-c3cc(OC)c(OC)c(OC)c3)c3ncccc23)cc1OC", "14%"]
]}

----------
# System: MCF7
# testDetails: Antiproliferative activity against human MCF7 cells assessed as cell growth inhibition measured after 48 hrs by MTT assay
# Format: functional, cell-based
# testSettings: MCF7, 48 h
readout: IC50

{"columns": ["smilesRepresentation", "systemTested", "recordedResult"],
 "data": [
  ["COC(=O)c1ccc(-c2nn(-c3cc(OC)c(OC)c(OC)c3)c3ncccc23)cc1", "MCF7", "> 100 µM"],
  ["COc1cccc(-c2nn(-c3cc(OC)c(OC)c(OC)c3)c3ncccc23)n1", "MCF7", "> 100 µM"],
  ["COc1cccc(-c2nn(-c3cc(OC)c(OC)c(OC)c3)c3ncccc23)c1", "MCF7", "86.9 µM"],
  ["COC(=O)c1ccc(-n2nc(-c3cc(OC)c(OC)c(OC)c3)c3cccnc32)cc1", "MCF7", "> 100 µM"],
  ["COc1ccccc1-c1nn(-c2cc(OC)c(OC)c(OC)c2)c2ncccc12", "MCF7", "> 100 µM"],
  ["COc1cc(-c2nn(-c3ccc(C(=O)NN)cc3)c3ncccc23)cc(OC)c1OC", "MCF7", "65.2 µM"],
  ["COc1cc(-n2nc(-c3ccc(Cl)c(Cl)c3)c3cccnc32)cc(OC)c1OC", "MCF7", "> 100 µM"],
  ["COc1ccc(-c2nn(-c3cc(OC)c(OC)c(OC)c3)c3ncccc23)cc1[N+](=O)[O-]", "MCF7", "28.4 µM"],
  ["COc1cc(-c2nn(Cc3ccc(C)cc3)c3ncccc23)cc(OC)c1OC", "MCF7", "> 100 µM"],
  ["COc1ccc(-c2nn(-c3cc(OC)c(OC)c(OC)c3)c3ncccc23)cc1", "MCF7", "> 100 µM"],
  ["COc1cc(-c2nn(-c3ccc(Cl)cc3)c3ncccc23)cc(OC)c1OC", "MCF7", "> 100 µM"],
  ["COc1cc(-n2nc(-c3ccc4c(c3)OCO4)c3cccnc32)cc(OC)c1OC", "MCF7", "80.1 µM"],
  ["COc1cc(-n2nc(-c3ccc(Cl)cc3)c3cccnc32)cc(OC)c1OC", "MCF7", "97.6 µM"],
  ["COc1ccc(-n2nc(-c3cc(OC)c(OC)c(OC)c3)c3cccnc32)cc1OC", "MCF7", "> 100 µM"],
  ["COc1ccc(-c2nn(-c3cc(OC)c(OC)c(OC)c3)c3ncccc23)cc1N", "MCF7", "> 100 µM"],
  ["COc1cc(-n2nc(-c3ccccc3OC(F)(F)F)c3cccnc32)cc(OC)c1OC", "MCF7", "> 100 µM"],
  ["COc1ccc(-c2nn(-c3cc(OC)c(OC)c(OC)c3)c3ncccc23)cc1O", "MCF7", "27.2 µM"],
  ["COc1cc(-n2nc(-c3ccc(C)cc3)c3cccnc32)cc(OC)c1OC", "MCF7", "> 100 µM"],
  ["COc1cc(-n2nc(-c3ccc(C#N)cc3)c3cccnc32)cc(OC)c1OC", "MCF7", "45.9 µM"],
  ["COc1cc(F)ccc1-c1nn(-c2cc(OC)c(OC)c(OC)c2)c2ncccc12", "MCF7", "87.6 µM"],
  ["COc1cc(-n2nc(-c3ccc(C(=O)NN)cc3)c3cccnc32)cc(OC)c1OC", "MCF7", "> 100 µM"]
]}

----------
# Test system: MDA-MB-231
# testDetails: Antiproliferative activity against human MDA-MB-231 cells assessed as cell growth inhibition measured after 48 hrs by MTT assay
# Format: functional, cell-based
# testSettings: MDA-MB-231, 48 h
readout: IC50 (µM)

{"columns": ["smilesRepresentation", "inequalitySign", "recordedResult"],
 "data": [
  ["COc1cc(-n2nc(-c3ccc(C(=O)NN)cc3)c3cccnc32)cc(OC)c1OC", "=", 51],
  ["COc1cc(-c2nn(Cc3ccc(C)cc3)c3ncccc23)cc(OC)c1OC", ">", 100],
  ["COc1ccc(-c2nn(-c3cc(OC)c(OC)c(OC)c3)c3ncccc23)cc1OC", "=", 28.7],
  ["COc1cc(-n2nc(-c3ccc(C#N)cc3)c3cccnc32)cc(OC)c1OC", "=", 82.5],
  ["COc1cc(-n2nc(-c3ccc(Cl)c(Cl)c3)c3cccnc32)cc(OC)c1OC", ">", 100],
  ["COc1ccc(F)cc1-c1nn(-c2cc(OC)c(OC)c(OC)c2)c2ncccc12", "=", 69.9],
  ["COc1cc(-n2nc(-c3ccc([N+](=O)[O-])cc3)c3cccnc32)cc(OC)c1OC", ">", 100]
]}

----------
# System: MCF7
# testDetails: Antiproliferative activity against human MCF7 cells assessed as cell growth inhibition measured after 48 hrs by MTT assay
# Type: functional, cell-based
# testSettings: MCF7, 48 h
We begin with a simple list: items and their reported IC50.

{"columns": ["smilesRepresentation", "inequalitySign", "IC50 / µM"],
 "data": [
  ["COc1cc(-n2nc(-c3ccc([N+](=O)[O-])cc3)c3cccnc32)cc(OC)c1OC", ">", 100],
  ["COc1ccc(-c2nn(-c3cc(OC)c(OC)c(OC)c3)c3ncccc23)cc1OC", "=", 96.8],
  ["COc1ccc(F)cc1-c1nn(-c2cc(OC)c(OC)c(OC)c2)c2ncccc12", ">", 100],
  ["COc1cc(-c2nn(Cc3ccc(F)cc3)c3ncccc23)cc(OC)c1OC", ">", 100],
  ["COc1cc(-n2nc(-c3ccc(F)cc3)c3cccnc32)cc(OC)c1OC", "=", 76.7]
]}

----------
# Tested on: MDA-MB-231
# testDetails: Antiproliferative activity against human MDA-MB-231 cells assessed as cell growth inhibition measured after 48 hrs by MTT assay
# Type: functional, cell-based
# testSettings: MDA-MB-231, 48 h
pIC50: −log10 of the molar value.
Below, each entry is listed alongside its reported pIC50.
readout: pIC50

{"columns": ["smilesRepresentation", "readout", "inequalitySign", "recordedResult"],
 "data": [
  ["COc1cc(-n2nc(-c3ccc(F)cc3)c3cccnc32)cc(OC)c1OC", "pIC50", "=", 4.25],
  ["COc1ccc(-c2nn(-c3cc(OC)c(OC)c(OC)c3)c3ncccc23)cc1N", "pIC50", "<", 4.00],
  ["COc1cccc(-c2nn(-c3cc(OC)c(OC)c(OC)c3)c3ncccc23)c1", "pIC50", "=", 4.06],
  ["COc1cc(-n2nc(-c3ccc(Cl)cc3)c3cccnc32)cc(OC)c1OC", "pIC50", "=", 4.07],
  ["COc1ccc(-c2nn(-c3cc(OC)c(OC)c(OC)c3)c3ncccc23)cc1O", "pIC50", "=", 4.57],
  ["COc1cc(-c2nn(-c3ccc(C(=O)NN)cc3)c3ncccc23)cc(OC)c1OC", "pIC50", "<", 4.00],
  ["COc1cc(-n2nc(-c3ccc4c(c3)OCO4)c3cccnc32)cc(OC)c1OC", "pIC50", "=", 4.10],
  ["COc1ccc(-c2nn(-c3cc(OC)c(OC)c(OC)c3)c3ncccc23)cc1[N+](=O)[O-]", "pIC50", "=", 4.43],
  ["COc1cc(F)ccc1-c1nn(-c2cc(OC)c(OC)c(OC)c2)c2ncccc12", "pIC50", "=", 4.33],
  ["COC(=O)c1ccc(-n2nc(-c3cc(OC)c(OC)c(OC)c3)c3cccnc32)cc1", "pIC50", "<", 4.00],
  ["COc1ccc(-c2nn(-c3cc(OC)c(OC)c(OC)c3)c3ncccc23)cc1", "pIC50", "<", 4.00],
  ["COc1cc(-n2nc(-c3ccccc3OC(F)(F)F)c3cccnc32)cc(OC)c1OC", "pIC50", "=", 4.22],
  ["COc1ccccc1-c1nn(-c2cc(OC)c(OC)c(OC)c2)c2ncccc12", "pIC50", "<", 4.00],
  ["COc1cc(-c2nn(-c3ccc(Cl)cc3)c3ncccc23)cc(OC)c1OC", "pIC50", "<", 4.00],
  ["COc1ccc(-n2nc(-c3cc(OC)c(OC)c(OC)c3)c3cccnc32)cc1OC", "pIC50", "<", 4.00],
  ["COc1cc(-n2nc(-c3ccc(C)cc3)c3cccnc32)cc(OC)c1OC", "pIC50", "<", 4.00],
  ["COC(=O)c1ccc(-c2nn(-c3cc(OC)c(OC)c(OC)c3)c3ncccc23)cc1", "pIC50", "<", 4.00],
  ["COc1cccc(-c2nn(-c3cc(OC)c(OC)c(OC)c3)c3ncccc23)n1", "pIC50", "<", 4.00],
  ["COc1ccc(/C=C\\c2cc(OC)c(OC)c(OC)c2)cc1O", "pIC50", "=", 7.77],
  ["COc1cc(-c2nn(Cc3ccc(F)cc3)c3ncccc23)cc(OC)c1OC", "pIC50", "=", 4.21]
]}
